Value source: ChEMBL document CHEMBL3351699

PROTOCOL_TEXT: Solubility of the compound
Assay type: physicochemical
Kindly state solubility for each of the entries shown.
Give bare numbers, in µM.

| SMILES_STR | OBSERVED_VALUE |
| --- | --- |
| CCCc1cc(-c2nc(-c3ccc(OCCN4CCOCC4)cc3)cs2)ccn1 | 29.8 |
| CCCc1cc(-c2nc(-c3ccc(OCCN4CCCC4)cc3)cs2)ccn1 | 155 |
| CCCc1cc(-c2nc(-c3ccc(NS(C)(=O)=O)cc3)cs2)ccn1 | 1.3 |
| CCCc1cc(-c2nc(-c3ccc(C)cc3)cs2)ccn1 | 0.4 |
| CCCc1cc(-c2nc(-c3ccncc3)cs2)ccn1 | 91.5 |

Task item: For the compound shown here, CCCc1cc(-c2nc(-c3ccc(OCCN(C)C)cc3)cs2)ccn1 , give the reported solubility.
Reply: 279
